System: FLT3;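 further: KINOMEscan kinase panel screen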
particulars: concentration: 1 μM, replicates: in singlicate; n = 1
Kind request: treat 8% as inclusive, so %Inh at 8% or higher is 1, anything lower is 0.

>>> assigned_label("N#Cc1ccc(Oc2ccc(Nc3ncnc4cc[nH]c34)cc2Cl)cc1")
1

-- ask Hi, just wondering whether Cn1ccc2ncnc(Nc3ccc(Oc4cccc(Cl)c4)c(Cl)c3)c21 shows %Inh of 8% or higher.
-- reply 0

-- ask Hello, I need to know if CC(C)(C)c1ccc(-n2cnc3c(N)ncnc32)cc1 [SKF-97263] has measured %Inh not below 8%. Thanks!
-- reply 0

-- ask Quick check, %Inh >= 8%? CCCc1ccc(S(=O)(=O)NC2CCN(c3ccnc(Nc4ccc(OC)cc4)n3)C2)cc1 (centres unmarked) [GSK1379737]
-- reply 1
